system: HCT-8; assay: In vitro cytotoxicity against HCT-8 human colon carcinoma cells.; assay type: functional; conditions: read-out: ID50 (the source's name)
pIC50: −log10 of the molar value.
MEASURED_ATTRIBUTE: pIC50

> print(dat)
                                 mol.smiles  experimental.target  value.reported
1   Cc1cccc2nc3c(C(=O)NCCN(C)C)cccc3c(N)c12                HCT-8            6.60
2  CN(C)CCNC(=O)c1cc(Cl)cc2c(N)c3ccccc3nc12                HCT-8            6.49
3  CN(C)CCNC(=O)c1ccc(Cl)c2c(N)c3ccccc3nc12                HCT-8            6.44
4   Cc1cc(C(=O)NCCN(C)C)c2nc3ccccc3c(N)c2c1                HCT-8            6.37
5    COc1ccc2c(N)c3ccccc3nc2c1C(=O)NCCN(C)C                HCT-8            6.11
6      CN(C)CCNC(=O)c1cccc2c(N)c3ccccc3nc12                HCT-8            7.18
7   Cc1cccc2c(N)c3cccc(C(=O)NCCN(C)C)c3nc12                HCT-8            7.96
